# assay protocol: Oral bioavailability in Sprague-Dawley rat at 200 mg/kg
# Assay type: ADME, organism-based
# experimental setup: in vivo
measure: bioavailability (%)

INSERT INTO assay_data (molecule, measure, measured_result) VALUES
  ('CN(C)C(=O)c1cc2cnc(Nc3ccc(C(=O)NCCCCCCNc4cccc5c4C(=O)N(C4CCC(=O)N(COC(=O)C(C)(C)C)C4=O)C5=O)cc3)nc2n1C1CCCC1 (stereo unspecified)', 'bioavailability', 68);

====

# assayed system: Cyclin-dependent kinase 2/cyclin E1 (Homo sapiens)
# assay protocol: Inhibition of CDK2/Cyclin E (unknown origin)
measure: IC50 (µM)

INSERT INTO results (chem_smiles, measured_result) VALUES
  ('COC(=O)c1ccc(Nc2ncc3cc(C(=O)N(C)C)n(C4CCCC4)c3n2)cc1', 0.39);
